// data source = PubChem BioAssay (NCATS)

Assay: Stat Signaling Pathway (AID 446);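 further: ME-180 cervical cancer cells given 40 pM IL-6 alongside compound; SIE-controlled beta-lactamase reporter measured as 460/530 nm FRET emission ratio; on the % scale 0 is the no-effect control and ±100 the full control effect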
Conditions: ME-180 (cervical carcinoma) SIE beta-lactamase reporter, IL-6 stimulated, 5 h; at 7.69 µM (top of the series) unless noted
Records with an inconclusive call do not appear.
metric: activity, negative = inhibition (%)

{"columns": ["sample.smiles", "observed.value"],
 "data": [
  ["O=c1cnc2cnc(Oc3ccccc3)nc2n1C1CC1", -13.1],
  ["COc1ccc2[nH]cc(CCNc3cc(-c4ccccc4C)ncn3)c2c1", -6.58],
  ["COc1ccc(C(=O)N2CCC3(CCCN(c4ncccn4)C3)CC2)cc1", -4.23],
  ["Cn1cccc1C(=O)N1CCC2(CC1)CCN(c1ncccn1)CC2", -4.72],
  ["CS(=O)(=O)Nc1cccc(-c2nccc(-n3ccnc3)n2)c1", 0.985],
  ["O=C(c1ccncc1)N1CCC2(CC1)CCN(c1ccccn1)CC2", -1.09],
  ["Cc1cnc(CNc2cc(-c3cccnc3)ncn2)cn1", -0.57],
  ["COc1ccc(NC(=O)N2CC3(CCN(C(=O)c4cccc(F)c4)CC3)C2)cc1", 0.388],
  ["O=C(c1cnccn1)N1CCC2(CC1)CN(Cc1nccs1)C2", -2.27],
  ["Cc1noc(C)c1C(=O)N1CCC[C@@]2(CCN(C(c3ccccc3)c3ccccc3)C2)C1", -6.89]
]}

* * *

Test: qHTS Counterscreen for compound interference against the NCATS DSHEA and TCM libraries (AID 1919978);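 further: compounds preincubated with 1 µM D-luciferin or buffer before detection reagent; % of control where 0% means no effect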
Details: firefly luciferase detection reagent interference, luminescence
metric: max response (%)

{"columns": ["compound", "observed.value"],
 "data": [
  ["COc1ccc2ccc(=O)oc2c1", 3.31],
  ["C=C[C@](C)(O)CCC=C(C)C", -3.94],
  ["O=c1ccc2ccc(O)cc2o1", 2.6],
  ["O=C(/C=C/c1ccc(O)c(O)c1)OC(Cc1ccc(O)c(O)c1)C(=O)O (stereo not given)", -4.37],
  ["NC(Cc1c[nH]c2ccccc12)C(=O)O (stereo not given)", 1.56]
]}

* * *

Molecular target: Rap guanine nucleotide exchange factor 4 (Homo sapiens)
Experiment: Confirmatory qHTS for agonist of cAMP-regulated guanine nucleotide exchange factor 4 (EPAC2) (AID 1645884);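 further: nucleotide exchange releases bodipy-GDP from Rap1 and this lowers its fluorescence; nearly all actives have a fitted effect of over 65% in size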; on activation: on the % scale 0 is the no-effect control and ±100 the full control effect
Settings: EPAC2 GEF activity, Rap1B-BODIPY-GDP fluorescence; series mostly up to 154 µM
Records with an inconclusive call do not appear. Calls of active or inactive are those of the source. The call rests on the fitted dose curve; in most records, active means well fitted activation curve with a large enough effect; inconclusive means small, poorly fitted or top-dose-only effect; inactive means no such curve, though single readings can be large or run the other way.
Outcome codes: active, inactive

{"columns": ["compound", "target.entity", "assigned.label"],
 "data": [
  ["COC(=O)N1CCC2(CCCN(c3cccc(-c4ccccc4)c3)C2)CC1", "Rap guanine nucleotide exchange factor 4 (Homo sapiens)", "inactive"],
  ["O=c1cc(-c2ccc(O)c(O)c2)oc2cc(OC3OC(CO)C(O)C(O)C3O)cc(O)c12 (stereo not drawn)", "Rap guanine nucleotide exchange factor 4 (Homo sapiens)", "inactive"],
  ["COc1cc(/C=C\\c2ccc(OC)cc2OC)cc(OC)c1", "Rap guanine nucleotide exchange factor 4 (Homo sapiens)", "inactive"],
  ["COc1ccc(CNc2ncnc3ccc(-c4c(C)noc4C)cc23)c(OC)c1", "Rap guanine nucleotide exchange factor 4 (Homo sapiens)", "inactive"],
  ["COc1ccc2[nH]cc(CCNc3ncnc4ccc(-c5ccccc5C#N)cc34)c2c1", "Rap guanine nucleotide exchange factor 4 (Homo sapiens)", "inactive"],
  ["COc1ccc(C(=O)O)c(O)c1OC", "Rap guanine nucleotide exchange factor 4 (Homo sapiens)", "inactive"],
  ["Cn1c(=O)c(CCc2ccccc2)nc2cnc(Oc3ccccc3)nc21", "Rap guanine nucleotide exchange factor 4 (Homo sapiens)", "inactive"],
  ["COCCn1c(=O)c(-c2ccc(OC)cc2)nc2cnc(Nc3cccc(OC)c3)nc21", "Rap guanine nucleotide exchange factor 4 (Homo sapiens)", "active"],
  ["COc1ccccc1CNc1nc(-c2ccc3c(c2)OCO3)nc2ccccc12", "Rap guanine nucleotide exchange factor 4 (Homo sapiens)", "inactive"],
  ["CCOC(=O)c1c(C)cc(OC)cc1O", "Rap guanine nucleotide exchange factor 4 (Homo sapiens)", "inactive"],
  ["COc1ccccc1CNc1ncncc1-c1ccccc1OC", "Rap guanine nucleotide exchange factor 4 (Homo sapiens)", "inactive"],
  ["COc1ccc(C(=O)N2CCC3(CCN(Cc4cc(C(F)(F)F)cc(C(F)(F)F)c4)CC3)CC2)cc1", "Rap guanine nucleotide exchange factor 4 (Homo sapiens)", "inactive"],
  ["Cn1cccc1C(=O)N1CCC2(CC1)CN(c1cccc(-c3ccccc3)c1)C2", "Rap guanine nucleotide exchange factor 4 (Homo sapiens)", "inactive"],
  ["COc1cccc(-c2nccc(NCc3cccs3)n2)c1", "Rap guanine nucleotide exchange factor 4 (Homo sapiens)", "inactive"],
  ["O=C1C=CC2=C3c4cc(O)c(O)cc4CC3(O)COC2=C1O (stereo not drawn)", "Rap guanine nucleotide exchange factor 4 (Homo sapiens)", "inactive"],
  ["C=CC(C)(C)c1c2c(c(O)c3c(=O)c4ccc(O)c(O)c4oc13)C=CC(C)(C)O2", "Rap guanine nucleotide exchange factor 4 (Homo sapiens)", "inactive"],
  ["CCC(=O)OC1CCC2C3CCc4cc(O)ccc4C3CC[C@]12C (stereo partly drawn)", "Rap guanine nucleotide exchange factor 4 (Homo sapiens)", "inactive"],
  ["C=CC(C1=CC(=O)C(OC)=CC1=O)c1ccccc1 (stereo not drawn)", "Rap guanine nucleotide exchange factor 4 (Homo sapiens)", "inactive"],
  ["COc1ccccc1CNc1nc(-c2cccnc2)nc2ccccc12", "Rap guanine nucleotide exchange factor 4 (Homo sapiens)", "inactive"],
  ["O=c1c(O)c(-c2ccc(O)c(O)c2)oc2c(OC3OC(CO)C(O)C(O)C3O)c(O)cc(O)c12 (stereo not drawn)", "Rap guanine nucleotide exchange factor 4 (Homo sapiens)", "inactive"],
  ["COc1c(-c2ccc(O)c(O)c2)oc2cc(O)cc(O)c2c1=O", "Rap guanine nucleotide exchange factor 4 (Homo sapiens)", "inactive"],
  ["C#C[C@]1(OC(C)=O)CCC2C3CCC4=CC(=O)CCC4C3CC[C@]21C (stereo partly drawn)", "Rap guanine nucleotide exchange factor 4 (Homo sapiens)", "inactive"],
  ["COc1ccc(-c2nc3cnc(Nc4cccc(OC)c4)nc3n(Cc3cccs3)c2=O)cc1", "Rap guanine nucleotide exchange factor 4 (Homo sapiens)", "inactive"],
  ["COC(=O)c1c(OC)cc2c(c1C)Oc1c(Cl)c(OC(C)=O)c(Cl)c(C)c1C(=O)O2", "Rap guanine nucleotide exchange factor 4 (Homo sapiens)", "inactive"],
  ["O=c1c(-c2ccc(Cl)cc2)nc2cncnc2n1Cc1ccccc1Cl", "Rap guanine nucleotide exchange factor 4 (Homo sapiens)", "inactive"],
  ["Cc1ccccc1-c1nc(N(C)Cc2ccco2)c2ccccc2n1", "Rap guanine nucleotide exchange factor 4 (Homo sapiens)", "inactive"],
  ["CN(C)c1ncc2nc(-c3cc(F)cc(F)c3)c(=O)n(Cc3cccs3)c2n1", "Rap guanine nucleotide exchange factor 4 (Homo sapiens)", "inactive"],
  ["COc1cc(C)c(C(=O)Oc2cc(C)c(C(=O)O)c(O)c2C)c(OC)c1C", "Rap guanine nucleotide exchange factor 4 (Homo sapiens)", "inactive"]
]}

* * *

Target: Dual specificity protein kinase CLK4 (Homo sapiens)
Assay: qHTS Assay for Inhibitors of CDC-like Kinase 4 (Kinase-Glo Assay) (AID 1770); further: nearly all actives have a fitted effect of over 65% in size
Settings: recombinant Clk4, Kinase-Glo ATP depletion luminescence; series mostly up to 66.7 µM
Inconclusive results are not listed. Active and inactive are the calls of the source. Calls follow the shape of the dose curve; as a rule, active = well fitted inhibition curve with a large enough effect; inconclusive = small, poorly fitted or top-dose-only effect; inactive = flat fitted curve, though single readings scatter.
Classes used: 1 for active, 0 for inactive

{"columns": ["sample.smiles", "assigned.label"],
 "data": [
  ["O=c1c(-c2cccs2)nc2cncnc2n1Cc1ccc(F)cc1", 0],
  ["CC(=O)NCCNc1nc(-c2ccccc2C)nc2ccccc12", 1],
  ["CN(C)c1ncc2nc(-c3cc(F)cc(F)c3)c(=O)n(Cc3ccc(F)cc3)c2n1", 0],
  ["CN(C)C(=O)c1ccc(-c2nccc(NCc3cccs3)n2)cc1", 0],
  ["CNc1nc(-c2cccc(NS(C)(=O)=O)c2)nc2ccccc12", 1],
  ["CN(C)c1ncc2nc(-c3cc(F)cc(F)c3)c(=O)n(CCc3ccccc3)c2n1", 0],
  ["COc1cccc(-c2cc(NCc3cccnc3)ncn2)c1", 1],
  ["COc1ccccc1CNc1nc(-c2ccc3c(c2)OCO3)nc2ccccc12", 0],
  ["COCCn1c(=O)c(-c2cc(F)cc(F)c2)nc2cncnc21", 0],
  ["COCCn1c(=O)c(C)nc2cnc(N3CCOCC3)nc21", 0],
  ["O=c1c(-c2ccccc2)nc2cncnc2n1-c1ccccc1", 0],
  ["Clc1ccccc1-c1nc(NC2CCNCC2)c2ccccc2n1", 1],
  ["COc1ccccc1CNc1nc(-c2cccnc2)nc2ccccc12", 1],
  ["Cc1cnc(CNc2ncncc2-c2ccc3c(c2)OCO3)cn1", 1],
  ["COc1ccccc1CNc1cc(-c2ccccc2Cl)ncn1", 1],
  ["N#Cc1cccc(-c2ccc3ncnc(NC4CCNCC4)c3c2)c1", 1],
  ["CN(C)c1ccc(-c2ccc3ncnc(N(C)Cc4ccco4)c3c2)cc1", 1],
  ["COc1cccc(-c2nc(N(C)Cc3ccco3)c3ccccc3n2)c1", 1],
  ["COc1cccc(Cn2c(=O)c(-c3ccc(Cl)cc3)nc3cnc(N4CCOCC4)nc32)c1", 0],
  ["COc1ccc2[nH]cc(CCNc3ncncc3-c3cccc(NS(C)(=O)=O)c3)c2c1", 1],
  ["CN(Cc1ccco1)c1ncnc2ccc(-c3ccccc3C#N)cc12", 1],
  ["COc1cccc(Nc2ncc3nc(-c4cccs4)c(=O)n(CCC#N)c3n2)c1", 0],
  ["Cc1ccccc1-c1nc(N2CCOCC2)c2ccccc2n1", 1],
  ["COc1cccc(Cn2c(=O)c(-c3ccc(Cl)cc3)nc3cncnc32)c1", 0]
]}
